# Tested on: SK-OV-3
# protocol details: Growth inhibition of human SK-OV-3 cells at 10 uM incubated for 48 hrs by sulforhodamine B assay relative to control
# Type: functional
# experimental conditions: read-out: GI
measured quantity: inhibition of growth at 10 µM (%)
// return numeric value only (unit: %, not printed)

As a guide, the following entries are already answered.
>>> print(df.to_string())
                            smiles_notation              measured_quantity  units_symbol  result_value
0  COc1cc2nc(-c3ccc(C(F)(F)F)cc3)cc(OCCN3CCOCC3)c2cc1OC  inhibition of growth at 10 µM             %            13
1  COc1cc2nc(-c3ccc(Cl)cc3)cc(OCCCN3CCCCC3)c2cc1OC  inhibition of growth at 10 µM             %            62
2  COc1cc2nc(-c3ccco3)cc(OCCCN3CCC(O)CC3)c2cc1OC  inhibition of growth at 10 µM             %            46
3  COc1cc2nc(-c3ccc(Cl)cc3)cc(OCCCN3CCCC3)c2cc1OC  inhibition of growth at 10 µM             %            62
4  COc1cc2nc(-c3ccc(C(F)(F)F)cc3)cc(OCCN3CCCC3)c2cc1OC  inhibition of growth at 10 µM             %            13

Tell me the measured inhibition of growth at 10 µM of `COc1cc2nc(-c3ccc(Cl)cc3)cc(OCCN3CCCC3)c2cc1OC` , please.
3

`COc1cc2nc(-c3ccc(Cl)cc3)cc(OCCN3CCOCC3)c2cc1OC` ?
3

`COc1cc2nc(-c3ccc(Cl)cc3)cc(OCCN3CCC(O)CC3)c2cc1OC` ?
3

`COc1cc2nc(-c3ccc(C(F)(F)F)cc3)cc(OCCN3CCC(O)CC3)c2cc1OC` ?
13

`COc1cc2nc(-c3ccc(Cl)cc3)cc(OCCN3CCCCC3)c2cc1OC` ?
3
